Biological target: recombinant PRL-3 (Homo sapiens, UniProt O75365)
Construct: 6xHis (N, cleaved yes); made in house; host or cells: E. coli One Shot BL21 Star
Sequence (O75365 whole entry): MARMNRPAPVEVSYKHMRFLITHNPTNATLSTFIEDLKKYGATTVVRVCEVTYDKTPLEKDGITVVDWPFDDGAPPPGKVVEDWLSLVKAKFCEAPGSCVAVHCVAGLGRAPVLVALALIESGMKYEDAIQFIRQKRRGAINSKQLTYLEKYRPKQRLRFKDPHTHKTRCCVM
Assay: In vitro phosphatase assay (DiFMUP hydrolysis), PRL-3
Assay type: biochemical
Conditions: FDA-approved drug screen; compared to DMSO
API: label(entry) gives class 1 if the entry's % Phosphatase Activity (compared to DMSO) PRL-3 is strictly smaller than 90%; on equality or larger values it gives class 0.

Use these answered entries as a reference point.
>>> qualitative_label("CCOC(=O)C1=C(COCCN)NC(C)=C(C(=O)OC)C1c1ccccc1Cl (stereo not shown) [Amlodipine]")
"class 0"
>>> qualitative_label("COc1ccc(-c2nc3ccc(C4=NNC(=O)CC4C)cc3[nH]2)cc1 (stereo not shown) [Pimobendan]")
"class 0"
>>> qualitative_label("CCCCC[C@H](O)/C=C/[C@H]1[C@H](O)CC(=O)[C@@H]1CCCCCCC(=O)O [Alprostadil]")
"class 0"
>>> qualitative_label("O=S(=O)([O-])CCCS(=O)(=O)[O-].[Na+].[Na+] [Eprodisate (disodium)]")
"class 0"
>>> qualitative_label("Cc1cc(C)c2c(c1)[C@@H](N(Cc1cc(C(F)(F)F)cc(C(F)(F)F)c1)c1nnn(C)n1)CCCN2C[C@H]1CC[C@H](C(=O)O)CC1 [Evacetrapib (LY2484595)]")
"class 1"

# ---- query compound ----
Query :: Hello, I'm reviewing records and need to know if % Phosphatase Activity (compared to DMSO) PRL-3 of CN1CCN(CCOc2cc(OC3CCOCC3)c3c(Nc4c(Cl)ccc5c4OCO5)ncnc3c2)CC1 [Saracatinib (AZD0530)] is below 90%. Could you check?
Result :: class 1

Hello, the source for this data is paper PMC8119466, in case you need it.
